biological target: Human Plasma sPLA2; test: 10-pyrene fluorescence enzyme assay, human plasma sPLA2 (ex vivo); format: biochemical; conditions: Human plasma sPLA2, 20% plasma; uncompetitive, Ki = KiNR/(1+(Km/[S])); pH 7.4, 22–25°
readout_name: Ki (µM)
Hi! Could you send only the number? It should be in µM, unit omitted.

// lookup Ki for CHEASAAQC [CHEC-9, nonapeptide CHEC-9 (…), internal fragment of DSEP/Dermcidin/PIF, synthesized by Celtek, purified and cross-linked] 0.062

----------
molecular target: sPLA2; details: read-out: Ki (individual experiments); individual experiments repeated 5 or more times; pH 7.4, 22–25°
pKi: −log10 of the molar value.
readout_name: pKi

pKi lookup needed for CHEASAAQC [CHEC-9] , thanks. > 7.00

Just for reference, paper PMC1624820 is where these values come from.
